System: Rhizoctonia oryzae
Assay: Test G: turf brown patch, preventive spray on creeping bent grass seedlings
Details: 40 ppm (*)
Marks after values point to notes of the source that are not given here.
Each entry below carries its reported Test G disease control rating.
experimental.endpoint: Test G disease control rating

[
  {
    "query.smiles": "CC(C)Cn1c(-c2cccc(F)c2)c(Cl)nc(-n2cncn2)c1=O",
    "experimental.endpoint": "Test G disease control rating",
    "experimental.result": "0* %"
  },
  {
    "query.smiles": "CC(C)Cn1c(-c2c(Cl)ccc(Cl)c2Cl)c(Cl)nc(-n2cccn2)c1=O",
    "experimental.endpoint": "Test G disease control rating",
    "experimental.result": "44* %"
  },
  {
    "query.smiles": "CC(C)Cn1c(-c2ccoc2)c(Cl)nc(-n2cncn2)c1=O",
    "experimental.endpoint": "Test G disease control rating",
    "experimental.result": "0* %"
  },
  {
    "query.smiles": "CC(C)Cn1c(-c2ccccc2F)c(Cl)nc(-n2cccn2)c1=O",
    "experimental.endpoint": "Test G disease control rating",
    "experimental.result": "62* %"
  },
  {
    "query.smiles": "CC(C)Cn1c(-c2ccccc2)c(Cl)nc(-n2cccn2)c1=O",
    "experimental.endpoint": "Test G disease control rating",
    "experimental.result": "41* %"
  }
]

====

Tested on: Colletotrichum orbiculare
Assay: Test B: cucumber Colletotrichum anthracnose, preventive spray on cucumber seedlings
Details: 40 ppm (marked *); 100 = 100% disease control, 0 = no control
Marks after values point to notes of the source that are not given here.
experimental.endpoint: Test B disease control rating

[
  {
    "molecule": "CC(C)Cn1c(-c2ccc(F)cc2Cl)c(Cl)nc(-n2cccn2)c1=O",
    "experimental.result": "100* %"
  },
  {
    "molecule": "Cc1ccn(-c2nc(Cl)c(-c3c(F)cccc3F)n(-c3ccc(F)cc3F)c2=O)n1",
    "experimental.result": "0* %"
  },
  {
    "molecule": "O=c1c(-n2cccn2)nc(Cl)c(-c2c(F)cccc2F)n1-c1ccc(OC(F)(F)F)cc1",
    "experimental.result": "56* %"
  },
  {
    "molecule": "CC(C)Cn1c(-c2c(Cl)cc(Cl)cc2Cl)c(Cl)nc(-n2cccn2)c1=O",
    "experimental.result": "82* %"
  },
  {
    "molecule": "Cc1ccn(-c2nc(Cl)c(-c3c(F)cccc3F)n(-c3cc(F)cc(F)c3)c2=O)n1",
    "experimental.result": "99* %"
  },
  {
    "molecule": "Cc1ccn(-c2nc(Cl)c(-c3c(F)cccc3F)n(Cc3ccc(F)cc3)c2=O)n1 [compound 331]",
    "experimental.result": "90* %"
  },
  {
    "molecule": "O=c1c(-n2cccn2)nc(Cl)c(-c2c(F)cccc2F)n1C1CC1c1ccccc1 (centres unmarked)",
    "experimental.result": "0* %"
  },
  {
    "molecule": "O=c1c(-n2cccn2)nc(Cl)c(-c2c(F)cc(F)cc2F)n1-c1cccc(F)c1F",
    "experimental.result": "100* %"
  }
]

====

System: Rhizoctonia oryzae
Test: Test G: turf brown patch, preventive spray on creeping bent grass seedlings
Conditions: Waitea circinata, in Agrostis stolonifera, topical, 144 h, read-out: Test G disease control rating, 40 ppm (marked *); 100 = 100% disease control, 0 = no control
experimental.endpoint: pest or weed control at 40 ppm (%)

[
  {
    "compound": "CC(C)Cn1c(-c2ccc(F)cc2Cl)c(Cl)nc(-n2cccn2)c1=O [Compound 302]",
    "test.system": "Rhizoctonia oryzae",
    "experimental.result": 94
  },
  {
    "compound": "O=c1c(-n2cccn2)nc(Cl)c(-c2c(F)ccc(F)c2F)n1-c1ccccc1 [Compound 357]",
    "test.system": "Rhizoctonia oryzae",
    "experimental.result": 84
  },
  {
    "compound": "COc1ccc(Cn2c(-c3c(F)cccc3F)c(Cl)nc(-n3cccn3)c2=O)cc1 [Compound 271]",
    "test.system": "Rhizoctonia oryzae",
    "experimental.result": 0
  },
  {
    "compound": "NC(=O)c1nc(Cl)c(-c2c(F)cc(F)cc2F)n(-c2cccc(F)c2)c1=O [Compound 414]",
    "test.system": "Rhizoctonia oryzae",
    "experimental.result": 0
  },
  {
    "compound": "O=c1c(-n2cccn2)nc(Cl)c(-c2c(F)cc(F)cc2F)n1-c1cccc(F)c1 [Compound 324]",
    "test.system": "Rhizoctonia oryzae",
    "experimental.result": 97
  }
]

====

System: Puccinia recondita f. sp. tritici
Assay: Test K: wheat leaf rust, preventive spray on wheat seedlings
Conditions: 40 ppm (*)
Marks after values point to notes of the source that are not given here.
Each entry below carries its reported Test K disease control rating.
experimental.endpoint: Test K disease control rating

[
  {
    "compound": "CCCCn1c(-c2c(F)cc(F)cc2F)c(Cl)nc(-n2cncn2)c1=O",
    "experimental.result": "17* %"
  },
  {
    "compound": "CC(C)Cn1c(-c2ccc3ccccc3c2)c(Cl)nc(-n2cncn2)c1=O",
    "experimental.result": "0* %"
  },
  {
    "compound": "CC(C)Cn1c(-c2ccccc2Br)c(Cl)nc(-n2cncn2)c1=O",
    "experimental.result": "92* %"
  },
  {
    "compound": "CSCC(C)n1c(-c2c(F)cccc2F)c(Cl)nc(-n2cncn2)c1=O (stereo not drawn)",
    "experimental.result": "0* %"
  },
  {
    "compound": "CCc1ccccc1-c1c(Cl)nc(-n2cccn2)c(=O)n1CC(C)C",
    "experimental.result": "0* %"
  },
  {
    "compound": "N#Cc1nc(Cl)c(-c2c(F)cccc2F)n(-c2ccccc2)c1=O",
    "experimental.result": "0* %"
  },
  {
    "compound": "CC(C)Cn1c(-c2c(F)cccc2C(F)(F)F)c(Cl)nc(-n2cncn2)c1=O",
    "experimental.result": "0* %"
  },
  {
    "compound": "CC(C)Cn1c(-c2ccc(C(C)(C)C)cc2)c(Cl)nc(-n2cccn2)c1=O",
    "experimental.result": "80* %"
  },
  {
    "compound": "CS(=O)(=O)CCn1c(-c2c(F)cccc2F)c(Cl)nc(-n2cncn2)c1=O",
    "experimental.result": "0* %"
  },
  {
    "compound": "N#Cc1nc(Cl)c(-c2c(F)cccc2F)n(Cc2ccco2)c1=O",
    "experimental.result": "0* %"
  },
  {
    "compound": "COCC(C)n1c(-c2c(F)cccc2F)c(Cl)nc(-n2cccn2)c1=O (stereo not drawn)",
    "experimental.result": "98* %"
  },
  {
    "compound": "CCC(C)Cn1c(-c2ccc(F)cc2Cl)c(Cl)nc(N2CCC=N2)c1=O (stereo not drawn)",
    "experimental.result": "94* %"
  },
  {
    "compound": "CC(C)Cn1c(-c2ccccc2Cl)c(Cl)nc(-n2cncn2)c1=O",
    "experimental.result": "89* %"
  },
  {
    "compound": "CCc1nccn1-c1nc(Cl)c(-c2c(F)cccc2F)n(CC(C)CC)c1=O (stereo not drawn)",
    "experimental.result": "55* %"
  },
  {
    "compound": "O=c1c(-n2cncn2)nc(Cl)c(-c2c(F)cccc2F)n1Cc1ccc(Cl)cc1",
    "experimental.result": "79* %"
  },
  {
    "compound": "CCC(C)Cn1c(-c2ccc(F)cc2Cl)c(Cl)nc(-n2ccc(C(F)(F)F)n2)c1=O (stereo not drawn)",
    "experimental.result": "80* %"
  },
  {
    "compound": "O=c1c(-n2cncn2)nc(Cl)c(-c2c(F)cccc2F)n1CC1CCCO1 (stereo not drawn)",
    "experimental.result": "0* %"
  },
  {
    "compound": "CC(C)Cn1c(-c2c(Cl)ccc(Cl)c2Cl)c(Cl)nc(-n2cccn2)c1=O",
    "experimental.result": "99* %"
  }
]

====

Tested on: Septoria tritici
Assay: Test J: wheat leaf blotch, preventive spray on wheat seedlings
Assay type: in vivo
Conditions: Zymoseptoria tritici, 528 h; 40 ppm (marked *); 100 = 100% disease control, 0 = no control; read-out: Test J disease control rating

[
  {
    "molecule": "NC(=O)c1nc(Cl)c(-c2c(F)cc(F)cc2F)n(-c2cccc(F)c2)c1=O",
    "output.unit": "%",
    "pest or weed control at 40 ppm": 97
  },
  {
    "molecule": "O=c1c(-n2cccn2)nc(Cl)c(-c2c(F)cc(F)cc2F)n1-c1cccc(F)c1",
    "output.unit": "%",
    "pest or weed control at 40 ppm": 100
  },
  {
    "molecule": "CC(C)Cn1c(-c2ccc(F)cc2Cl)c(Cl)nc(-n2cccn2)c1=O",
    "output.unit": "%",
    "pest or weed control at 40 ppm": 100
  },
  {
    "molecule": "O=c1c(-n2cccn2)nc(Cl)c(-c2c(F)ccc(F)c2F)n1-c1ccccc1",
    "output.unit": "%",
    "pest or weed control at 40 ppm": 91
  },
  {
    "molecule": "COc1ccc(Cn2c(-c3c(F)cccc3F)c(Cl)nc(-n3cccn3)c2=O)cc1",
    "output.unit": "%",
    "pest or weed control at 40 ppm": 0
  },
  {
    "molecule": "CCC(C)Cn1c(-c2ccc(F)cc2F)c(C)nc(C#N)c1=NC(C)=O (stereo not shown)",
    "output.unit": "%",
    "pest or weed control at 40 ppm": 86
  },
  {
    "molecule": "CCC(C)c1c(Cl)nc(-n2cccn2)c(=O)n1CC(C)C (stereo not shown)",
    "output.unit": "%",
    "pest or weed control at 40 ppm": 37
  }
]

Reference source: patent US20080194585A1
